Just for reference, ChEMBL document CHEMBL1122372 is where these values come from.

assay: Tested for neurotoxicity in rotarod test; assay type: toxicity, organism-based; conditions: mouse, in vivo
Measure name: TD50 (mg/kg)
# output: bare number, implied unit mg/kg

**Q:** Kindly indicate its recorded TD50. Item: Cl.NCC1CC(=O)N(Cc2ccccc2)C1=O (stereo unspecified)
**A:** 268

----------
experiment: Tested for Neurotoxicity in rotarod test; assay type: toxicity, organism-based; settings: mouse, in vivo
Measure name: TD50 (mg/kg)
# output: bare number, implied unit mg/kg

**Q:** Kindly indicate its recorded TD50. Item: O=C1CC(CNCc2ccccc2)C(=O)N1Cc1ccccc1 (stereo unspecified)
**A:** 267

----------
system: Mus musculus; assay: Tested for anti-pentylenetetrazole activity in mice at 4 h; - denotes inactive up to 600 mg/kg; format: functional, organism-based; set-up: dose 600 mg/kg
Measure name: PTZ

The examples below pair each entry with its known result.
- Molecule: "O=C1CC(CNCc2ccccc2)C(=O)N1Cc1ccccc1 (stereo not given)"
  PTZ: "Not toxic"
- Molecule: "CC1(CN)CC(=O)N(Cc2ccccc2)C1=O (stereo not given)"
  PTZ: "Not toxic"
- Molecule: "CC(=O)NCC1CC(=O)N(Cc2ccccc2)C1=O (stereo not given)"
  PTZ: "Not toxic"
- Molecule: "Cl.NCC1CC(=O)N(Cc2ccccc2)C1=O (stereo not given)"
  PTZ: "Not toxic"

Please turn your attention to the following entry.
**Q:** Kindly indicate its recorded PTZ. Item: CC(=O)NCC1(C)CC(=O)N(Cc2ccccc2)C1=O (stereo not given)
**A:** Not toxic
